Consider the following compounds; for each one, report its pIC50.
- targetUnderTest: Serine/threonine-protein kinase B-raf (Homo sapiens, UniProt P15056)
- Sequence (P15056 whole entry): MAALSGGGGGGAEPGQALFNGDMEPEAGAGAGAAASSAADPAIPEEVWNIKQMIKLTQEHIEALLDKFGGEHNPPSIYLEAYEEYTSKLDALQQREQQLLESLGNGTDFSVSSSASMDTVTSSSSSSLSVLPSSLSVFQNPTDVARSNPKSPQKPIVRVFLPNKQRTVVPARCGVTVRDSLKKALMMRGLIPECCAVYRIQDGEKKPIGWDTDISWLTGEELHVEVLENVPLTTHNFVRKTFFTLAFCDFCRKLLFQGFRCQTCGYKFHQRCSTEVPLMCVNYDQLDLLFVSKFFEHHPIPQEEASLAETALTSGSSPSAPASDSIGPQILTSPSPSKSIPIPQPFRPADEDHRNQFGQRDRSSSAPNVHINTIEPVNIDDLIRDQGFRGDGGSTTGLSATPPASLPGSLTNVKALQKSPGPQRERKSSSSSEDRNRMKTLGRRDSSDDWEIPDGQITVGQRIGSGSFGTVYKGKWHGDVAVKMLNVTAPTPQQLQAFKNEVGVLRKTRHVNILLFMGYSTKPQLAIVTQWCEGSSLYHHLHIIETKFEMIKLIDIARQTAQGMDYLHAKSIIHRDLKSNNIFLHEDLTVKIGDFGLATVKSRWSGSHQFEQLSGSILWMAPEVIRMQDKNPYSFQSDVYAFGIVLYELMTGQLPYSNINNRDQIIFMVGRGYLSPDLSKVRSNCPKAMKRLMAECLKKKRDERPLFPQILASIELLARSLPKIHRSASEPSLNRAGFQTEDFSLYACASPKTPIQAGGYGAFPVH
- assayRemarks: Inhibition of B-Raf
In simple prose, pIC50 is minus the logarithm base ten of a concentration in moles per litre.

Query: Entry "c1ccc(-n2cc(-c3ccc4c(c3)Cc3c[nH]nc3-4)c(-c3ccncc3)n2)cc1" has what pIC50?
Response: 8.34

Query: Then "CNCCn1cc(-c2ccc3c(c2)Cc2c[nH]nc2-3)c(-c2ccncc2)n1" ?
Response: 7.14

Query: Then "CNC(=O)c1ccc(-c2cn(C)nc2-c2ccncc2)cc1" ?
Response: 6.19

Query: Then "Cn1cc(-c2cccc3[nH]ncc23)c(-c2ccncc2)n1" ?
Response: 6.33

Query: Then F[C@@H]1CNCC[C@H]1n1cc(-c2ccc3c(c2)Cc2c[nH]nc2-3)c(-c2ccncc2)n1 (stereo in doubt; 41) ?
Response: 8.80

Query: Then "F[C@H]1CNCC[C@@H]1n1cc(-c2ccc3c(c2)Cc2c[nH]nc2-3)c(-c2ccncc2)n1" ?
Response: 8.90

Query: Then "N[C@H]1CC[C@@H](n2cc(-c3ccc4c(c3)Cc3c[nH]nc3-4)c(-c3ccncc3)n2)CC1" ?
Response: 7.64

Query: Then "Cn1cc(-c2ccc3cn[nH]c3c2)c(-c2ccncc2)n1" ?
Response: 6.86

Query: Then "N[C@H]1CC[C@H](n2cc(-c3ccc4c(c3)Cc3c[nH]nc3-4)c(-c3ccncc3)n2)CC1" ?
Response: 9.18

Query: Then "O[C@@H]1CCC[C@H](n2cc(-c3ccc4c(c3)Cc3c[nH]nc3-4)c(-c3ccncc3)n2)C1" ?
Response: 8.70

Query: Then c1cc(-c2nn(C3CCCNCC3)cc2-c2ccc3c(c2)Cc2c[nH]nc2-3)ccn1 (stereo not given) ?
Response: 8.49

Query: Then c1cc(-c2nn(C3CC4COCC(C3)N4)cc2-c2ccc3c(c2)Cc2c[nH]nc2-3)ccn1 (stereo not given) ?
Response: 8.30

Query: Then "F[C@H]1CCNC[C@H]1n1cc(-c2ccc3c(c2)Cc2c[nH]nc2-3)c(-c2ccncc2)n1" ?
Response: 8.49

Query: Then "Cn1cc(-c2ccc3c(O)cccc3c2)c(-c2ccncc2)n1" ?
Response: 8.85

Query: Then "Cn1cc(-c2ccc3cc[nH]c3c2)c(-c2ccncc2)n1" ?
Response: 6.48

Query: Then c1cc(-c2nn(C3CC4CCC(C3)N4)cc2-c2ccc3c(c2)Cc2c[nH]nc2-3)ccn1 (stereo not given) ?
Response: 9.24

Query: Then "CN1CCC(n2cc(-c3ccc4c(c3)Cc3c[nH]nc3-4)c(-c3ccncc3)n2)CC1" ?
Response: 8.10

Query: Then "Cn1cc(-c2ccc3c(c2)Cc2n[nH]nc2-3)c(-c2ccncc2)n1" ?
Response: 7.96

Query: Then "F[C@H]1CNCC[C@H]1n1cc(-c2ccc3c(c2)Cc2c[nH]nc2-3)c(-c2ccncc2)n1" ?
Response: 8.42

Query: Then "Cn1cc(-c2ccc3c(c2)CCc2c[nH]nc2-3)c(-c2ccncc2)n1" ?
Response: 7.64

Query: Then c1cc(-c2nn(C3CCCNC3)cc2-c2ccc3c(c2)Cc2c[nH]nc2-3)ccn1 (stereo not given) ?
Response: 8.43

Query: Then "Cc1c[nH]nc1-c1ccc(-c2cn(C)nc2-c2ccncc2)cc1" ?
Response: 8.15

Query: Then "Cn1cc(-c2ccc3c(c2)CNC3=O)c(-c2ccncc2)n1" ?
Response: 7.03

Query: Then F[C@@H]1CNCC[C@H]1n1cc(-c2ccc3c(c2)Cc2c[nH]nc2-3)c(-c2ccncc2)n1 (stereo in doubt; 38) ?
Response: 8.85
